- tested_on: Adenosine receptor A3 (Homo sapiens, UniProt P0DMS8)
- Sequence (P0DMS8 whole entry): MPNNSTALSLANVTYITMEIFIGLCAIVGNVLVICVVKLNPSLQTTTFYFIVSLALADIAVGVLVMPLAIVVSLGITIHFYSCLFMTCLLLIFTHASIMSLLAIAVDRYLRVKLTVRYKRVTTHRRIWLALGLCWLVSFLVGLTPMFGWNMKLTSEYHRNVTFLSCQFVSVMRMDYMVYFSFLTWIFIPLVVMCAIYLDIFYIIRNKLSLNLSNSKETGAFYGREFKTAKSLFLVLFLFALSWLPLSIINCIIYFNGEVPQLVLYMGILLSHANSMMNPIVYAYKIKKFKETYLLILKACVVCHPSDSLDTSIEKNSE
Please provide measured AC50 for the entries that follow.

compound | reported_measurement
O=C(O)[C@H](CC(=O)N1C[C@H]2CCCC[C@H]2C1)Cc1ccccc1 [MITIGLINIDE] | > 10 µM

Please give AC50 for each item listed below.
1. C#C[C@]1(O)CC[C@H]2[C@@H]3CCc4cc(OC5CCCC5)ccc4[C@H]3CC[C@@]21C
2. COC(=O)C1=C(C)NC(C)=C(C(=O)OC2CCCN(Cc3ccccc3)C2)C1c1cccc([N+](=O)[O-])c1 (stereo unspecified)
3. CCOC(=O)OC(C)OC1=C(C(=O)Nc2ccccn2)N(C)S(=O)(=O)c2ccccc21 (stereo unspecified)

Response:
1: > 10 µM; 2: 3.5 µM; 3: > 30 µM

The measurements presented in this section are drawn from ChEMBL document CHEMBL5291721.
